B1: C10orf62 (parent)
chain: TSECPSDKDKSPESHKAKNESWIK

Variants of: B1
procedure_details: protein stability index of a GFP-peptide fusion (GPS, HEK-293T) (PSI 1-6); higher = more stable;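 also: lentivirally expressed fusions sorted by FACS into six bins by GFP to DsRed ratio, PSI derived from sequencing read proportions per bin multiplied by bin number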
condition_context: c terminus: a fixed tail appended
readout_label: protein stability index
// response body must contain only the number

Query string: What does the data say about its protein stability index? Entry: "A17V"
Result string: 3.37

Query string: What does the data say about its protein stability index? Entry: "P5G"
Result string: 3.41

Query string: What does the data say about its protein stability index? Entry: "K18A"
Result string: 3.67

Query string: What does the data say about its protein stability index? Entry: "A17P"
Result string: 3.07

Query string: What does the data say about its protein stability index? Entry: "D9L"
Result string: 2.54
